Origin of values: PubChem BioAssay

- procedure.summary: binders from COS7 lysate, DM2A8 probe, primary screen, torsin A project, cell lysate, small-molecule microarray, fluorescence 635/667 (AID 1065)
- experimental.conditions: higher = more signal, COS7 lysate expressing mutant human TOR1A
outcome.measure: composite z-score
Respond numerically, and do not add a unit to the figure.

[N-]=[N+]=Nc1ccccc1C[C@@]1(C(=O)NCCN2CCOCC2)N=C(c2ccc(OCCCO)cc2)O[C@@H]1c1ccccc1N=[N+]=[N-] = 0.639

Ask | # query: composite z-score of entry `C=CCNC(=O)[C@@H]1[C@H]2C(=O)O[C@H](c3ccccc3)[C@H](c3ccccc3)N2[C@H](c2ccccc2OCCO)[C@@]12C(=O)Nc1ccc(C#CCC(C(=O)OC)C(=O)OC)cc12`
Reply | 0.491

Ask | Tell me the measured composite z-score of `C=CC[C@H](OC(=O)Nc1ccc(SC)cc1)c1ccc(O)c2ccccc12` , please.
Reply | 0.104

Ask | Consider the molecule shown here: `COc1ccc(CCNC(=O)[C@@]2(Sc3ccc(C)cc3)CC(=O)N(Cc3ccccc3C(F)(F)F)[C@@H]2c2ccc(CO)cc2I)cc1` What is its recorded composite z-score?
Reply | -1.11

Ask | Which measured composite z-score value corresponds to `COc1ccc(C#Cc2ccc3c(c2)[C@]2(C(=O)N3)[C@H](c3ccc(OCCO)cc3)N3[C@H](c4ccccc4)[C@H](c4ccccc4)OC(=O)[C@H]3[C@@H]2C(=O)NC[C@H](O)c2ccccc2)cc1` ?
Reply | 0.411

---

Some molecules, each annotated with its measured composite z-score.
- System: Chordin-like protein 2 (CHRDL2)
- procedure.summary: compounds binding chordin-like 2 – biochemical, small-molecule microarray, 635 nm fluorescence, primary screen (AID 1126);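 further: printed compound slides probed with Chrdl2 protein at 4 µg/mL for 1 h at 4 C; score merges 667 nm emission intensity with signal to noise over three replicate slides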
- experimental.conditions: fluorescence 635 nm, higher = more signal
Form field (numeric): enter value without unit.

Known composite z-score results, listed for orientation:
C=C[C@@H](CO)N(Cc1ccc(OC)cc1)S(=O)(=O)c1ccc(Br)cc1 = 0.231
CCOC(=O)C=Cc1cccc(C)c1O = -0.0961
CC(CO)N1C(=O)[C@@H]2[C@H]3C(=O)OCC=C[C@H]3OC23C=CCN(Cn2nnc4ccccc42)C(=O)[C@@H]13 (stereo partly specified) = -0.851
C=C(/C(=C/C[C@H](OC(=O)c1ccncc1)c1ccc(CO)o1)c1cnc2ccccc2c1)C(C)C = 0.684
CC(c1ccccc1)C(O)C1C=CC2C(=O)N(C)C(=O)C2N1Nc1ccccc1 (stereo unspecified) = -0.826
CCCN1C(=O)[C@]2(Cc3ccccc31)N=C(c1ccc(OCCCO)cc1)O[C@@H]2c1ccccc1 = -0.184
C=C(COC)/C(=C/C[C@H](OC(=O)c1ccncc1)c1ccccc1OCCO)c1cc(C(=O)OC)ccc1OC = 0.0156
OCCCC1=CC(c2ccc(CN3CCCC3)cc2)N(Cc2cc3c(cc2Br)OCO3)CC1 (stereo unspecified) = 0.901
Cc1ccc(F)cc1S(=O)(=O)N[C@@H]1CCN(Cc2ccc(Br)cc2)C1 = 0.743
O=C(c1ccccc1)N1C(=O)[C@]2(Cc3ccccc31)N=C(c1ccc(OCCCO)cc1)O[C@@H]2c1ccccc1 = 0.371

Let's switch to this molecule now.
Ask | Return reported composite z-score; argument: O=C(C1N=C(c2ccc(OCCCO)cc2)N(c2ccccc2)O1)N1CCCCC1 (stereo unspecified)
Reply | 0.165

---

- system.under.test: Albumin (Bos taurus) (UniProt P02769)
- Sequence (P02769 whole entry, looked up): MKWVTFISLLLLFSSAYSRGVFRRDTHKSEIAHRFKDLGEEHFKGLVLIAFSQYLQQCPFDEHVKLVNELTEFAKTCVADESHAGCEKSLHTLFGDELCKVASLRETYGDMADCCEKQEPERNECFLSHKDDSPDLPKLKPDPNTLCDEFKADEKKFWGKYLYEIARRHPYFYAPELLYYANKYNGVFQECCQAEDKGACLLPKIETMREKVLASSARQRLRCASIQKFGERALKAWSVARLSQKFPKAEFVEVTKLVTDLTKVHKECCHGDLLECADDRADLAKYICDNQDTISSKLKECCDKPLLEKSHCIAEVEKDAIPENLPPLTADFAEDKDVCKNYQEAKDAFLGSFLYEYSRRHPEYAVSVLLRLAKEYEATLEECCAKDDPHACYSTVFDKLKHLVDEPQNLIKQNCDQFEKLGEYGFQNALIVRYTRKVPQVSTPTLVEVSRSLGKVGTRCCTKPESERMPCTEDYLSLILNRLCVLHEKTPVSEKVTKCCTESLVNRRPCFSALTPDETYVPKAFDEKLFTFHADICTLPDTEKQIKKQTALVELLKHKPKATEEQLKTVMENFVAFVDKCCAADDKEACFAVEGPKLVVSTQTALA
- procedure.summary: compounds binding labelled BSA control protein – biochemical, small-molecule microarray, Alexa647 label, 635/667 nm fluorescence, artefact control for SMM control protein annotation, profiling panel (AID 1118);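 further: score merges 667 nm emission intensity and signal-to-noise per printed compound spot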
- experimental.conditions: BSA-A647 binding, fluorescence 635 nm, higher = more signal
outcome.measure: composite z-score
// print number alone

C=CCC(OC(C)=O)[C@@H]1[C@@H](N(Cc2cc3ccccc3o2)C(=O)Cc2ccc(F)cc2)c2cc(OCCCO)ccc2N1C(=O)Cc1ccc2ccccc2c1 (stereo not given in full) = 0.533
CC(=O)NCCCC[C@@H]1NC(=O)[C@@H]2C[C@H](C(=O)NCCCCCN)[C@H](c3ccc(O)cc3)N2C1=O = 0.0285
COc1cccc(C)c1NC(=O)O[C@H]1[C@H](OC(=O)Nc2ccccc2-c2ccccc2)[C@H](OC(=O)Nc2ccccc2-c2ccccc2)[C@@H](OC)O[C@@H]1CO = 0.816

Ask | Which composite z-score value belongs to `[N-]=[N+]=NCc1ccccc1C[C@@]1(C(N)=O)N=C(c2ccc(OCCCO)cc2)O[C@@H]1c1ccccc1` ?
Reply | 1.09

Ask | Which value of composite z-score has been reported for `Cc1ccc(F)cc1S(=O)(=O)N[C@@H]1CCN(Cc2ccc(Br)cc2)C1` in the records?
Reply | 0.694

Ask | // lookup composite z-score for `CCOC(=O)C[C@H]1[C@H](OC(=O)c2cc3ccccc3oc2=O)[C@@H](NC(=O)CC(C)C)c2cc(OCCCO)ccc2N1C(=O)c1ccc2ccccc2n1`
Reply | 0.42

Ask | // composite z-score lookup, key: O=C(Cc1ccccc1)[C@H]1C2C=CCCC(c3ccccc3)=C2CN1Cc1ccccc1 (stereo not given in full)
Reply | -0.567

Ask | # lookup: composite z-score of `O=C(NCc1ccc(F)cc1)[C@H]1C[C@H]2C(=O)NCC(=O)N2[C@H]1c1ccc(O)cc1`
Reply | -0.447

Ask | Looking for the measured composite z-score of `C=C(C(=O)CC[C@H](OC(=O)c1ccccc1-c1ccccc1C(=O)O)c1cccc(OCCO)c1)C(C)C` , can you help?
Reply | 0.688

Ask | Consider the compound `COC(=O)c1c(CC[C@@H](CO)NC(=O)N[C@@H](C)Cn2cc(-c3ccccn3)nn2)oc(C(C)=O)c1C(=O)OC` and give its measured composite z-score.
Reply | -0.373

Ask | Quick check: composite z-score of `NC(=O)[C@H]1[C@@H]2C(=O)O[C@@H](c3ccccc3)[C@@H](c3ccccc3)N2[C@@H](c2ccc(OCCO)cc2)[C@]12C(=O)Nc1ccc(C#CCCO)cc12` ?
Reply | 0.586

Ask | Item COc1cc(C(O)C2C=CC3C(=O)N(C)C(=O)C3N2Nc2ccccc2)cc(OC)c1OC (stereo not given) has what recorded composite z-score?
Reply | 0.785

Ask | What value of measured composite z-score is listed for `O=C(O)[C@@H]1C[C@@H]2C(=O)N3CCC[C@H]3C(=O)N2[C@@H]1c1ccc(O)cc1` ?
Reply | -0.0352

Ask | Quick check: composite z-score of `COC(=O)[C@@]1(Cc2ccc(OC)cc2)[C@H]2c3cc(C(=O)N4CCCC4)n(CCc4c[nH]c5ccc(O)cc45)c3C[C@H]2CN1C(=O)c1ccccc1` ?
Reply | 0.863

Ask | composite z-score lookup needed for `C=CCN1C(=O)[C@]2(CCC(=O)OC(C)(C)C)N=C(c3ccc(OCCCO)cc3)O[C@@H]2c2ccccc21` , thanks.
Reply | -0.361

Ask | Any idea what its composite z-score is? The compound is N#Cc1ccc(NN2C(C(O)c3ccc(Br)cc3)C=CC3C(=O)N(c4ccccc4)C(=O)C32)cc1 (stereo not given)
Reply | 0.539

Ask | Return reported composite z-score; argument: `CCOC(=O)C1=CC[C@@H](c2ccccc2F)N(S(=O)(=O)c2ccc(C)cc2)[C@H]1c1ccccc1`
Reply | 0.437

Ask | Can you look up the measured composite z-score of `COc1ccc([C@H]2OC[C@@H]3C[C@H](Cc4ccccc4)C(=O)N32)cc1` for me?
Reply | -0.0141

Ask | Any idea what its composite z-score is? The compound is `CCOC(=O)C[C@H]1[C@H](OC(=O)c2ccc(C(=O)c3ccccc3)cc2)[C@@H](NC(=O)c2ccc3ccccc3n2)c2cc(OCCCO)ccc2N1C(=O)Cc1ccc(OC)cc1`
Reply | 0.567

---

Catalogue of z-score readings, one per entry.
- procedure.summary: resazurin metabolic signal in A549 cells – cell-based, resazurin fluorescence, 24 h, PK04 Diversity Set, profiling panel (AID 1171); further: test concentration not given here
- experimental.conditions: A549 viability, higher = more signal, called active from +8 up or from −8 down
Activity calls are given as the source filed them.

Examples from the recorded data:
CC(C)C(CO)N1C(=O)[C@@H]2C3C(=O)OCCC/C=C\[C@H]3OC23C=CCN(Cn2nnc4ccccc42)C(=O)[C@@H]13 (stereo partly drawn) = 0.173 (inactive)
O=C1CS(=O)(=O)C(c2cccc([N+](=O)[O-])c2)N1c1ccccc1 (stereo not drawn) = 0.0249 (inactive)

Here's the next entry for you.
Ask | Requested field: z-score. Item: COc1cc(NN2C(C(O)c3ccco3)C=CC3C(=O)N(C)C(=O)C32)cc(OC)c1OC (stereo not drawn)
Reply | -1.41 (inactive)

---

- procedure.summary: plasmodial surface anion channel blockers, osmotic lysis – cell-based, P. falciparum Indochina, OD700, 1 h, primary screen (AID 1154)
- experimental.conditions: P. falciparum Indochina infected RBC osmotic lysis, higher = more signal, called active from +8 up or from −8 down
Hi, to clarify the labels: true covers z-score from 2 upward, false covers anything below 2.

Ask | In plain terms: is recorded z-score at least 2 for `CC(C)=C1C(=O)C(c2ccccc2)=C2CN3C(=O)N(CCc4ccccc4)C(=O)[C@]3(Cc3ccc(C(F)(F)F)cc3)[C@H]21` ?
Reply | true

Ask | hey, is z-score for this one >= 2? `[N-]=[N+]=NCc1ccccc1C[C@@]1(C(N)=O)N=C(c2ccc(OCCCO)cc2)O[C@@H]1c1ccccc1`
Reply | true

Ask | Check this molecule for z-score at or above 2: O=C1CS(=O)(=O)C(c2cccc([N+](=O)[O-])c2)N1c1ccccc1 (configuration not stated)
Reply | false

Ask | API: above_or_equal(metric=z-score, cutoff=2) for item `C=C[C@@H](OC)[C@H](OC(=O)Nc1ccc(OC)cc1)c1ccc(O)c(F)c1`
Reply | true

Ask | hey, is z-score for this one >= 2? `COC(=O)[C@]1(CCS(=O)(=O)c2ccccc2)N=C(c2ccc(OCCCO)cc2)O[C@@H]1c1ccccc1N=[N+]=[N-]`
Reply | true

Ask | Does CC(c1ccccc1)C(O)C1C=CC2C(=O)N(C)C(=O)C2N1Nc1ccccc1 (configuration not stated) have a reported z-score of at least 2?
Reply | false

Ask | Does the reported z-score for `CC(C)NC(=O)[C@@]1(c2ccc([N+](=O)[O-])cc2)CC(=O)N(C2CCCCC2)[C@@H]1c1ccc(CO)cc1` fall at or above the 2 mark?
Reply | false

Ask | Is it the case that `CCOC(=O)[C@@H]1CCCCN1C(=O)C(=O)OC` has z-score reaching or exceeding 2?
Reply | false

Ask | Kindly determine if z-score recorded for `Cc1ccc(N2C(=O)c3ccccc3[C@@H](C(=O)NCCCN(C)C)[C@@H]2c2ccc(CO)cc2)nc1` is above or exactly 2.
Reply | false

Ask | Could you please find out whether C=CCC(OC(C)=O)[C@@H]1[C@@H](N(Cc2ccc(-c3cccc(C(F)(F)F)c3)o2)C(=O)Cc2ccc(OC)cc2)c2cc(OCCCO)ccc2N1C(=O)c1ccc(-c2ccccc2)cc1 (some centres not stated) has z-score that meets 2 or exceeds it?
Reply | false
